- SUBJECT_OF_TEST: PD-1/PD-L1 (Homo sapiens, UniProt Q9NZQ7)
- Sequence (Q9NZQ7 19-238 limits assumed): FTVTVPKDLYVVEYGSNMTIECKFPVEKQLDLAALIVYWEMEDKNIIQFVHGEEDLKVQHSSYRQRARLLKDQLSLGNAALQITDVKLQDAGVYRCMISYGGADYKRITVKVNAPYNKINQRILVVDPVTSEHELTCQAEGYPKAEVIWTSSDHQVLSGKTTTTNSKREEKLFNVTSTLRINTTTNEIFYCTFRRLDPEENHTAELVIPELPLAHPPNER
- PROTOCOL: PD-1/PD-L1 biochemical protein-protein interaction assay (ALPHA)
- EXPERIMENTAL_SETUP: 0.3 nM His tagged PD-L1, 2.5 nM biotinylated Fc-PD-1, 60 minutes at 25° C., read-out: IC50 PD-L1-PD-1 Alpha IC50-mono PD-L1-fcP-D1
Param label: returns MET when IC50 < 0.2 nM, returns NOT MET otherwise, including exact equality.

Req: Criterion: IC50 strictly below 0.2 nM. Is it met by Cc1c(COc2cc(OCc3cncc(C#N)c3)c(CN[C@@](C)(CO)C(=O)O)cc2Cl)cccc1-c1cccc(-c2ccc(OCCN3CC4(CCC(=O)N4)C3)cc2)c1C [Example 520] ?
Resp: MET

Req: Identify whether the compound O=C(O)C[C@H](O)CNCc1ccc(OC2CCc3c(-c4cccc5c4CCC5Oc4ccc(CNC[C@@H](O)CC(=O)O)cc4)cccc32)cc1 (some centres unmarked) [Example 681] records IC50 below 0.2 nM.
Resp: NOT MET

Req: Confirm or reject: IC50 of N#Cc1cncc(COc2cc(C(=O)N3CCc4c(-c5cccc6c5CCN6C(=O)c5ccc(CNC[C@@H](O)CC(=O)O)c(OCc6cncc(C#N)c6)c5)cccc43)ccc2CNC[C@@H](O)CC(=O)O)c1 [Example 267] lies strictly below 0.2 nM
Resp: NOT MET

Req: A record lists COc1nc(OC2CCc3c(-c4cccc5c4CCC5Oc4nc(OC)c(CNC[C@@H](O)CC(=O)O)cc4Cl)cccc32)c(Cl)cc1CNC[C@@H](O)CC(=O)O (some centres unmarked) [Example 9] . Is its IC50 below 0.2 nM?
Resp: NOT MET

Req: Hi there! Is IC50 for COc1nc(-c2cccc(-c3cccc(-c4cnc5c(CNC[C@H]6CCC(=O)N6)cn(C)c5c4)c3Cl)c2Cl)ccc1CNC[C@H]1CCC(=O)N1 [Example 602] below 0.2 nM, do you know?
Resp: NOT MET

* * *

- SUBJECT_OF_TEST: PD-1/PD-L1 (Homo sapiens)
- PROTOCOL: PD-1/PD-L1 biochemical protein-protein interaction assay (ALPHA)
- EXPERIMENTAL_SETUP: 0.3 nM His tagged PD-L1, 2.5 nM biotinylated Fc-PD-1, 60 minutes at 25° C., read-out: IC50 PD-L1-PD-1 Alpha IC50-mono PD-L1-fcP-D1
MEASUREMENT_KIND: IC50

Req: Dear colleague, please send me the reported IC50 for COc1nc(O[C@H]2CCc3c(-c4cccc(-c5cc(C)c(CNC[C@@H]6CCC(=O)N6)c(OC)n5)c4Cl)cccc32)c(Cl)cc1CN1CC[C@H](C(=O)O)C1 [Example 491] when you can.
Resp: 0.064 nM

Req: Indicate the recorded IC50 value for this compound: COc1nc(-c2cccc(-c3cccc(-c4ccc5c(c4)CCC5N)c3Cl)c2Cl)ccc1C1=NCCN1 (centres unmarked) [Example 624]
Resp: 0.109 nM

Req: Indicate the recorded IC50 value for this compound: CS(=O)(=O)c1cncc(COc2nc(O[C@H]3CCc4c(-c5cccc6c5CC[C@@H]6Oc5nc(OCc6cncc(S(C)(=O)=O)c6)c(CNC[C@@H](O)CC(=O)O)cc5Cl)cccc43)c(Cl)cc2CNC[C@@H](O)CC(=O)O)c1 [Example 694]
Resp: 0.051 nM

Req: Note down IC50 recorded for Cc1c(COc2nc(OC[C@@H]3CCC(=O)N3)c(CNC[C@@H](O)CC(=O)O)cc2Br)cccc1-c1cccc(COc2nc(OC[C@@H]3CCC(=O)N3)c(CNC[C@@H](O)CC(=O)O)cc2Br)c1C [Example 328]
Resp: 0.142 nM

Req: Dear colleague, please send me the reported IC50 for COc1nc(O[C@H]2CCc3c(-c4cccc(-c5ccc(CNC[C@@H]6CCC(=O)N6)cc5)c4Cl)cccc32)c(Cl)cc1CN1CCC[C@H]1C(=O)O [Example 725] when you can.
Resp: 0.064 nM

Req: Dear colleague, please send me the reported IC50 for COc1nc(OCc2cccc(-c3cccc(COc4cc(OCc5cncc(C#N)c5)c(CNC[C@@H](O)CC(=O)O)cc4Cl)c3C)c2C)ccc1CNC[C@@H](O)CC(=O)O [Example 203] when you can.
Resp: 1 nM

Req: Report IC50, nothing else, for this compound: Cc1c(COc2cc(OCc3cncc(C#N)c3)c(CNC[C@@H](O)CC(=O)O)cc2Cl)cccc1-c1cccc(-c2ccc3c(c2)CCC3N(C)C)c1C (some centres unmarked) [Example 381]
Resp: 0.158 nM

Req: Given COc1nc(-c2cccc(-c3cccc(-c4ccc5c(CNC[C@H]6CCC(=O)N6)cn(C)c5c4)c3Cl)c2Cl)ccc1CNC[C@H]1CCC(=O)N1 [Example 605] , respond with its IC50.
Resp: 1.05 nM

Req: Complete the entry with IC50 for N#Cc1cncc(COc2nc(OCc3cccc(-c4cccc(-c5ccc(CNC[C@@H]6CCC(=O)N6)cc5)c4Cl)c3Cl)c(Br)cc2CNC[C@@H]2CCC(=O)N2)c1 [Example 540]
Resp: 0.593 nM

Req: Complete the entry with IC50 for C[C@@](CO)(NCc1cc(Cl)c(O[C@H]2CCc3c(-c4cccc(-c5ccc(OCCNCCO)cc5)c4Cl)cccc32)nc1OCc1cncc(C#N)c1)C(=O)O [Example 674]
Resp: 0.064 nM

Req: Check the records and state IC50 for COc1nc(-c2cccc(-c3cccc4c3CC[C@@H]4Oc3nc(OC)c(CNC[C@@H]4CCC(=O)N4)cc3Br)c2Cl)ccc1CNC[C@@H]1CCC(=O)N1 [Example 736]
Resp: 0.153 nM
